Test system: cultured human mast cells
testDescription: Degranulation inhibition test using cultured human mast cells (IgE cross-linking, β-Hexosaminidase release)
Format: cell-based
reportedConditions: Mast cell; Tables 1-x, compounds A; cultured human mast cells; read-out: human degranulation ave. IC50
pIC50: −log10 of the molar value. Structures can show the parent of a compound that is named as a salt.
observable: pIC50

Use these answered entries as a reference point.
>>> valuemeasured("Cc1ccnc(Nc2cccc(-c3cnc([C@@H]4COC(=O)N4CC(=O)O)s3)n2)c1")
"< 6.00"
>>> valuemeasured("Cc1ccnc(Nc2cccc(-c3cnc(N(CC(=O)N(C)C)C[C@H]4CC[C@H](C(=O)O)CC4)s3)n2)c1")
"< 6.00"
>>> valuemeasured("CC(=O)N1CCC(N(C)c2ncc(-c3cccc(Nc4cc(C)ccn4)n3)s2)CC1")
"6.00 to 7.00"
>>> valuemeasured("Cc1ccnc(Nc2cccc(-c3cnc(N4CCN(S(N)(=O)=O)CC4)s3)n2)c1")
"6.00 to 7.00"
>>> valuemeasured("COc1ccnc(Nc2cccc(-c3cnc(N4CC[C@@H](O)C4)s3)n2)c1")
"6.00 to 7.00"
>>> valuemeasured("Cc1ccnc(Nc2cccc(-c3cnc(COc4ccc(C(=O)O)cc4)s3)n2)c1")
"< 6.00"
>>> valuemeasured("Cc1ccnc(Nc2cccc(-c3cnc(N4CCC[C@@H](C(N)=O)C4)s3)n2)c1")
"6.00 to 7.00"
>>> valuemeasured("COC(CN(C)c1ncc(-c2cccc(Nc3cc(C)ccn3)n2)s1)OC")
"6.00 to 7.00"
>>> valuemeasured("Cc1ccnc(Nc2cccc(-c3cnc(N4CCC(N(C)C(=O)CO)CC4)s3)n2)c1")
"6.00 to 7.00"
>>> valuemeasured("Cc1ccnc(Nc2cccc(-c3cnc(CN4C[C@@H](O)[C@@H](O)C4)s3)n2)c1")
"6.00 to 7.00"

Q: For cultured human mast cells, give pIC50 of the listed compound: "Cc1ccnc(Nc2cccc(-c3cnc(CN4C(=O)CC(C)(C)CC4=O)s3)n2)c1"
Ans: 6.00 to 7.00

Q: For cultured human mast cells, give pIC50 of the listed compound: "Cc1ccnc(Nc2cccc(-c3cnc(N(C)[C@H]4CC[C@H](C(=O)O)CC4)s3)n2)c1"
Ans: 6.00 to 7.00

Q: For cultured human mast cells, give pIC50 of the listed compound: "Cc1ccnc(Nc2cccc(-c3cnc([C@@H]4COC(=O)N4CC(=O)N(C)C)s3)n2)c1"
Ans: < 6.00

Q: For cultured human mast cells, give pIC50 of the listed compound: "Cc1ccnc(Nc2cccc(-c3cnc(N(CC(N)=O)C[C@H]4CC[C@H](C(=O)O)CC4)s3)n2)c1"
Ans: < 6.00

Q: For cultured human mast cells, give pIC50 of the listed compound: "CN(c1ncc(-c2cccc(Nc3cc(Cl)ccn3)n2)s1)C1CCN(C(=O)CO)CC1"
Ans: 6.00 to 7.00

Q: For cultured human mast cells, give pIC50 of the listed compound: "Cc1ccnc(Nc2cccc(-c3cnc(N(C)CCNC(=O)CO)s3)n2)c1"
Ans: 6.00 to 7.00

Q: For cultured human mast cells, give pIC50 of the listed compound: "Cc1ccnc(Nc2cccc(-c3cnc(N4CCSCC4)s3)n2)c1"
Ans: 6.00 to 7.00

Q: For cultured human mast cells, give pIC50 of the listed compound: "Cc1ccnc(Nc2cccc(-c3cnc([C@H](CO)NC(=O)c4ccc(O)cc4)s3)n2)c1"
Ans: 6.00 to 7.00

Q: For cultured human mast cells, give pIC50 of the listed compound: "CNC(=O)CO[C@@H]1CCN(c2ncc(-c3cccc(Nc4cc(C)ccn4)n3)s2)C1"
Ans: 6.00 to 7.00

Q: For cultured human mast cells, give pIC50 of the listed compound: "CC(=O)N1CCC(N(CC(F)(F)F)c2ncc(-c3cccc(Nc4cc(C)ccn4)n3)s2)CC1"
Ans: < 6.00

Q: For cultured human mast cells, give pIC50 of the listed compound: Cc1ccnc(Nc2cccc(-c3cnc(N(C)Cc4ccc(CC(=O)O)cc4)s3)n2)c1 [Compound A-587, dihydrochloride]
Ans: 6.00 to 7.00

Q: For cultured human mast cells, give pIC50 of the listed compound: "Cc1ccnc(Nc2cccc(-c3cnc(N(C)[C@H]4CC[C@@H](C(=O)O)CC4)s3)n2)c1"
Ans: 6.00 to 7.00

Q: For cultured human mast cells, give pIC50 of the listed compound: "Cc1ccnc(Nc2cccc(-c3cnc(N4CCN(C(=O)N(C)C)CC4)s3)n2)c1"
Ans: 6.00 to 7.00

Q: For cultured human mast cells, give pIC50 of the listed compound: "CNC(=O)CC1CCN(c2ncc(-c3cccc(Nc4cc(C)ccn4)n3)s2)CC1"
Ans: 6.00 to 7.00
